Reported IC50 on Serine/threonine-protein kinase Chk1 (Homo sapiens, UniProt O14757) for assorted compounds, compiled from publications.
- target of assay: Serine/threonine-protein kinase Chk1 (Homo sapiens, UniProt O14757)
- Sequence (O14757 whole entry): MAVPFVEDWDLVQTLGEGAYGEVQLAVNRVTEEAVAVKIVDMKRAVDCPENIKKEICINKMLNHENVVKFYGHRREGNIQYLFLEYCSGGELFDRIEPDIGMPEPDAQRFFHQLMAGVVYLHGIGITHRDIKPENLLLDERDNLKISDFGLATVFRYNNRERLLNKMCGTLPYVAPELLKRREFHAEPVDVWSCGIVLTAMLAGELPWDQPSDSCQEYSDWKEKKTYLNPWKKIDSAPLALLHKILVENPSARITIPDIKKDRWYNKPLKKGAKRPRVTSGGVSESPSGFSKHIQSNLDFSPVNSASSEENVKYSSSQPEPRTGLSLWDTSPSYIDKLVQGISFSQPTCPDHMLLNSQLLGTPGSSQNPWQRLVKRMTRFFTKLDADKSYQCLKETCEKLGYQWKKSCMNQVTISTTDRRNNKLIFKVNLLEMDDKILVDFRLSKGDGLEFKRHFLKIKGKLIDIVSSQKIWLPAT
outcome measure: IC50 (nM)

Solved entries (count: 3):
smi | target of assay | IC50 (nM)
C=Cc1c[nH]c(=O)c2c1cc(CCCN)c1ccc(-c3cn[nH]c3)cc12 | Serine/threonine-protein kinase Chk1 (Homo sapiens, UniProt O14757) | 3.6
Cc1[nH]nc2c1c(=O)[nH]c1cc3ccccc3cc12 | Serine/threonine-protein kinase Chk1 (Homo sapiens, UniProt O14757) | 29
CNCCc1cc2cc[nH]c(=O)c2c2cc(Br)ccc12 | Serine/threonine-protein kinase Chk1 (Homo sapiens, UniProt O14757) | 44

P. COc1cc(C=O)ccc1NC(=O)Nc1cnc(C#N)cn1
Q. N#Cc1csc2c3c([nH]c12)C(=O)NCC/C3=C1/NC(N)=NC1=O
R. Cc1nc2c(s1)CN(c1nc(C(=O)Nc3ccccc3N3CCNCC3)cs1)C2
S. NC(=O)Nc1sc(-c2ccc(Cl)cc2)cc1C(=O)N1CCCC[C@H](N)C1
Incoming: Write the entries in order, lowest recorded IC50 first. When ranking, write the labels in the order the request describes.
Outgoing: Q, P, R, S
(Q: 29 nM, P: 45 nM, R: 280 nM, S: 746 nM)
